Consider the following molecules and their measured CC50 at 24 h readings.
assay: in vitro; details: rat, gh3-tre-luc cells, AC50 (uM) modified / 1000
Structures can show the parent of a compound that is named as a salt.
Measurement Type: CC50 at 24 h

CC(C)(C)NC[C@H](O)COc1ccccc1C1CCCC1 [Penbutolol sulfate] ... 11.1 µM
CC(C)(C)c1cccc(C(C)(C)C)c1O ... > 90 µM
c1ccc2cc3ccccc3cc2c1 ... > 90 µM
CC(=O)[C@]1(O)Cc2c(O)c3c(c(O)c2[C@@H](O[C@H]2C[C@H](N)[C@H](O)[C@H](C)O2)C1)C(=O)c1c(O)cccc1C3=O ... 0.177 µM
N=c1nc(N2CCCCC2)cc(N)n1O ... > 50 µM
CCOC(=O)O[C@]1(C(=O)COC(=O)CC)CC[C@H]2[C@@H]3CCC4=CC(=O)C=C[C@]4(C)[C@H]3[C@@H](O)C[C@@]21C [Prednicarbate] ... > 20 µM
O=C(CCCCC(=O)Nc1c(I)cc(I)c(C(=O)O)c1I)Nc1c(I)cc(I)c(C(=O)O)c1I [Iodipamide] ... > 50 µM

====

assay: in vitro; conditions: rat, gh3-tre-luc cells, AC50 (uM) modified / 1000
Consider the following compounds and their measured CC50 at 24 h readings.
Measurement Type: CC50 at 24 h

O=S(=O)(O)CCO [Sodium 2-hydroxyethanesulfonate] ... > 90 µM
COC(C)(C)CCO ... > 90 µM
Cc1nc2ccccn2c(=O)c1CCN1CCC(C(=O)c2ccc(F)cc2)CC1 ... > 50 µM

====

test: in vitro; conditions: rat, gh3-tre-luc cells, AC50 (uM) modified / 1000
Consider the following compounds and their measured CC50 at 24 h readings.
Measurement Type: CC50 at 24 h

COc1cc(NC(=O)CC(C)=O)c(OC)cc1Cl ... > 90 µM
COc1ccc(C[C@@H]2c3cc(OC)c(OC)cc3CC[N@+]2(C)CCC(=O)OCCCCCOC(=O)CC[N@@+]2(C)CCc3cc(OC)c(OC)cc3[C@H]2Cc2ccc(OC)c(OC)c2)cc1OC [Atracurium besylate] ... > 20 µM
O=C(CCS)OCC(COC(=O)CCS)(COC(=O)CCS)COC(=O)CCS ... > 90 µM
CCCCCCCCCCC(CO)CCCCCCCC (centres unmarked) ... > 90 µM
O=C(/C=C/c1ccc(O)c(O)c1)O[C@@H]1C[C@](OC(=O)/C=C/c2ccc(O)c(O)c2)(C(=O)O)C[C@@H](O)[C@H]1O ... > 50 µM

====

assay: in vitro; settings: rat, gh3-tre-luc cells, AC50 (uM) modified / 1000
Consider the following compounds and their measured CC50 at 24 h readings.
Measurement Type: CC50 at 24 h

Cc1ccc(N(C)C)cc1 ... > 90 µM
Cc1cc(C)c(C(=O)P(=O)(C(=O)c2c(C)cc(C)cc2C)c2ccccc2)c(C)c1 ... > 90 µM
CCN1CCN(C(=O)N[C@@H](C(=O)N[C@@H]2C(=O)N3C(C(=O)O)=C(CSc4nnnn4C)CS[C@H]23)c2ccc(O)cc2)C(=O)C1=O [Cefoperazone sodium] ... > 50 µM
C1CCC2OC2C1 (stereo not shown) [Cyclohexene oxide] ... > 100 µM
CCCCCCCCCCCC(=O)O ... > 90 µM
CNC(=O)N(c1ccccc1)c1ccccc1 ... > 90 µM
C[C@H]1O[C@@H](O[C@H]2[C@@H](O)C[C@H](O[C@H]3[C@@H](O)C[C@H](O[C@H]4CC[C@@]5(C)[C@H](CC[C@@H]6[C@@H]5CC[C@]5(C)[C@@H](C7=CC(=O)OC7)CC[C@]65O)C4)O[C@@H]3C)O[C@@H]2C)C[C@H](O)[C@@H]1O ... > 60 µM
Oc1cc(Cl)cc(Cl)c1Cl ... > 90 µM
Cc1cccc(C)c1NC(=O)CN1CCCCCC1 [Pincainide] ... > 50 µM
O=C(O)c1ccco1 ... > 90 µM
